target: Histone acetyltransferase p300 (Homo sapiens); experiment: Inhibition of recombinant human p300 (unknown origin) using [3H]acetylCoA as substrate measured after 60 mins by microbeta scintillation counting analysis
Sequence (Q09472 whole entry): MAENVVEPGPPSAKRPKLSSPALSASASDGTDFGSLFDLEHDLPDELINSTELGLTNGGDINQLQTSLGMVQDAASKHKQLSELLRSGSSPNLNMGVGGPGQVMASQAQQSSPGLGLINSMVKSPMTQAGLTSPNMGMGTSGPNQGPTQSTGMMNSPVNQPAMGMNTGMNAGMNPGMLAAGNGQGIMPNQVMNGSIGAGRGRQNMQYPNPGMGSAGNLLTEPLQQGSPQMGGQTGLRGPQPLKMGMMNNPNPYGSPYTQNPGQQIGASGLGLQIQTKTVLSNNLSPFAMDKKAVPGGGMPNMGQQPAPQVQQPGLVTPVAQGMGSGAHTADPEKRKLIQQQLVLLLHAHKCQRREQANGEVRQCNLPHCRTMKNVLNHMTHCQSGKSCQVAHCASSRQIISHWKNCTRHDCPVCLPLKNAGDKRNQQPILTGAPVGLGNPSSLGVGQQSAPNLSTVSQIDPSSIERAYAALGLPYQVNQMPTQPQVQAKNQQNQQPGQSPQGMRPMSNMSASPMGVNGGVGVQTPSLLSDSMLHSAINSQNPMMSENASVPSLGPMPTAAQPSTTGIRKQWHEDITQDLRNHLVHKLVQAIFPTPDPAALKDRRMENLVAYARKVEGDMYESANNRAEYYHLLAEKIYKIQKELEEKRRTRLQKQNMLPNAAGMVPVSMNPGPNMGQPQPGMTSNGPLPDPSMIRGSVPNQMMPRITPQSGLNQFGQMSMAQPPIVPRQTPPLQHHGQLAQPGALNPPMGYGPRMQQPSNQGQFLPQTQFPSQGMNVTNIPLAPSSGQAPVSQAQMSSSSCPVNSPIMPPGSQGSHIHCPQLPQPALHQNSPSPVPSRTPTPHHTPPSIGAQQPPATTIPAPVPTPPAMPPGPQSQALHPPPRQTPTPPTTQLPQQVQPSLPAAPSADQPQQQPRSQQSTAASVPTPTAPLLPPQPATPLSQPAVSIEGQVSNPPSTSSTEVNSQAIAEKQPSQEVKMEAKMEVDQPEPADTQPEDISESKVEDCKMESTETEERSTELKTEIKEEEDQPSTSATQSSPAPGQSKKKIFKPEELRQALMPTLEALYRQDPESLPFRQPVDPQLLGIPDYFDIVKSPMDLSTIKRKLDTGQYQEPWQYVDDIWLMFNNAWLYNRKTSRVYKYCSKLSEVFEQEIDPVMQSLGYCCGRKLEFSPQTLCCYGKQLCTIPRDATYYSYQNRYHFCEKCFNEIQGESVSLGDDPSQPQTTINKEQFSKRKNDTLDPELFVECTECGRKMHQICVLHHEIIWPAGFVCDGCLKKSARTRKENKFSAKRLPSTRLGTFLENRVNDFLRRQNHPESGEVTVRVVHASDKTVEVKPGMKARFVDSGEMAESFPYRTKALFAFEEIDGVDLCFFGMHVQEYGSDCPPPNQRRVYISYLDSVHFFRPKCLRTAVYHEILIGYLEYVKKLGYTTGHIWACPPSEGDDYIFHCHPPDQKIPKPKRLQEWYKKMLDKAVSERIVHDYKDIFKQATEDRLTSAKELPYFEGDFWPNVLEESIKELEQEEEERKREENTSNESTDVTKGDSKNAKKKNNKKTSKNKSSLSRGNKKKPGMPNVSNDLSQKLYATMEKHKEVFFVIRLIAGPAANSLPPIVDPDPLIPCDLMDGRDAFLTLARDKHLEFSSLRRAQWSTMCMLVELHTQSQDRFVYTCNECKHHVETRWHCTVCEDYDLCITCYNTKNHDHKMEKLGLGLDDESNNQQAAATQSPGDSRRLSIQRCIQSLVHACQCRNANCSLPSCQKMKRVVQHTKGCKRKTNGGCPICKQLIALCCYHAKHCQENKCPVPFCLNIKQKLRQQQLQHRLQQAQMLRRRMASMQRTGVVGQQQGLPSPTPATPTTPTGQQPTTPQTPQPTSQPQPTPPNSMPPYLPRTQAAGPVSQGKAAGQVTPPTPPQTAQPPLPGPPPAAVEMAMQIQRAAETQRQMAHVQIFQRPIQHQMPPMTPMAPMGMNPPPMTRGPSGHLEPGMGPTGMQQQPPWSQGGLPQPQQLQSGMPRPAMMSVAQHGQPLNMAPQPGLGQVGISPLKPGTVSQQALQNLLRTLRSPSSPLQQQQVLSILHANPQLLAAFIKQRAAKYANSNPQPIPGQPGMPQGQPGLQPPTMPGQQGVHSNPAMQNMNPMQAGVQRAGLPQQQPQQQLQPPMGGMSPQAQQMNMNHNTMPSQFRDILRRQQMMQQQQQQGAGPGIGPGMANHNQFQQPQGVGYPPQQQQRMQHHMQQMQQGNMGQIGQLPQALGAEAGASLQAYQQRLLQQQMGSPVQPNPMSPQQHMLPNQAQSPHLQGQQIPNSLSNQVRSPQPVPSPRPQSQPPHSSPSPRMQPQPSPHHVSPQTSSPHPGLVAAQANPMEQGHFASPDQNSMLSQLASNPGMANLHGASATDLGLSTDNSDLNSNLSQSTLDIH
pIC50: −log10 of the molar value.
observed.property: pIC50

[[record]]
compound_string = "Cc1ccc(N2C(=O)/C(=C/C=C/c3ccco3)C(=O)NC2=S)cc1Cl"
observed_property = "pIC50"
reported_value = 6.15


###

Item-by-item account of Cmax
assay: Cmax in Sprague-Dawley rat at 3 mg/kg, po by LC-MS/MS analysis; format: ADME, organism-based; set-up: dose 3 mg/kg, route oral; conditions: in vivo
observed.property: Cmax (nM)

[[record]]
compound_string = "Cn1cc(-c2ccc3c(c2)CC[C@]32NC(=O)N(CC(=O)N3Cc4cc(F)ccc4OC[C@H]3C(F)(F)F)C2=O)cn1"
observed_property = "Cmax"
reported_value = 1120

[[record]]
compound_string = "CNC(=O)Nc1ccc2c(c1)CC[C@@]21OC(=O)N(CC(=O)N2Cc3ccccc3CC[C@H]2C(F)(F)F)C1=O"
observed_property = "Cmax"
reported_value = 160

[[record]]
compound_string = "CNC(=O)Nc1ccc2c(c1)CC[C@]21NC(=O)N(CC(=O)N2Cc3cc(F)ccc3OC[C@H]2C2CC2)C1=O"
observed_property = "Cmax"
reported_value = 7

[[record]]
compound_string = "Cn1cc(-c2ccc3c(c2)CC[C@@]32OC(=O)N(CC(=O)N3Cc4cc(F)ccc4OC[C@H]3C3CC3)C2=O)cn1"
observed_property = "Cmax"
reported_value = 57

[[record]]
compound_string = "CNC(=O)Nc1ccc2c(c1)CC[C@]21NC(=O)N(CC(=O)N2Cc3cc(F)ccc3OC[C@H]2C(F)(F)F)C1=O"
observed_property = "Cmax"
reported_value = 20

[[record]]
compound_string = "CNC(=O)Nc1ccc2c(c1)CC[C@@]21OC(=O)N(CC(=O)N2Cc3cc(F)ccc3OC[C@H]2C(F)(F)F)C1=O"
observed_property = "Cmax"
reported_value = 80

[[record]]
compound_string = "CNC(=O)Nc1ccc2c(c1)CC[C@@]21OC(=O)N(CC(=O)N2Cc3ccccc3CC[C@H]2C2CC2)C1=O"
observed_property = "Cmax"
reported_value = 140

[[record]]
compound_string = "Cn1cc(-c2ccc3c(c2)CC[C@@]32OC(=O)N(CC(=O)N3Cc4cc(F)ccc4OC[C@H]3C(F)(F)F)C2=O)cn1"
observed_property = "Cmax"
reported_value = 390

[[record]]
compound_string = "Cn1cc(-c2ccc3c(c2)CC[C@]32NC(=O)N(CC(=O)N3Cc4cc(F)ccc4OC[C@H]3C3CC3)C2=O)cn1"
observed_property = "Cmax"
reported_value = 620

